Assay: Plasma and brain compound levels and pharmacokinetic parameters after i.p. administration
Type: in vivo, male Sprague–Dawley rats
Details: male, Sprague-Dawley, ip; plasma, rat, 10 mg/kg i.p.
MEASUREMENT LABEL: Tmax (min)
Write the number in min without appending the unit.

Data request: Reported Tmax for [O-][S@@+](Cc1cncs1)C(c1cccc(Cl)c1)c1cccc(Cl)c1 [(S)-MK-26] : what is it?
Data returned: 30

====

Target: hNET (Homo sapiens, UniProt P23975)
Sequence (P23975 whole entry): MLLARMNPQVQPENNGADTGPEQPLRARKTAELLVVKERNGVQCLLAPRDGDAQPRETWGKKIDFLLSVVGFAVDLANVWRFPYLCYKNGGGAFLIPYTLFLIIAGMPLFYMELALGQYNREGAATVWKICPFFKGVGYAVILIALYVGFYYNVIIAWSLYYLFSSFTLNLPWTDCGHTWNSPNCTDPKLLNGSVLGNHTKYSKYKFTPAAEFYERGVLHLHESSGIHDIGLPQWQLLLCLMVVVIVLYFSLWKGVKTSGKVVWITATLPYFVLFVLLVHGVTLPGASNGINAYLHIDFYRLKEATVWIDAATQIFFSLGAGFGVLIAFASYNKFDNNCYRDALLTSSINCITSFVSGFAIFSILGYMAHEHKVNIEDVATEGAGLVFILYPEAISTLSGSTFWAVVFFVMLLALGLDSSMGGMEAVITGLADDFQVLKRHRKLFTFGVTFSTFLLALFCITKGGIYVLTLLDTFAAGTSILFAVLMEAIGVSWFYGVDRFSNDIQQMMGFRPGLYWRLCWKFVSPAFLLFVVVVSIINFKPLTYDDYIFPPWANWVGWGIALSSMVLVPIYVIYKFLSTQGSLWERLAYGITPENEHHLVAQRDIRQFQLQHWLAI
Test: Uptake inhibition assay in HEK293 cells expressing hNET
MEASUREMENT LABEL: IC50
Answer shape: numeric part, then the unit.

Data request: Reported IC50 for [O-][S@+](Cc1cncs1)C(c1cccc(Cl)c1)c1cccc(Cl)c1 [(R)-MK-26] : what is it?
Data returned: 2160 µM

Data request: Queued: [O-][S@@+](Cc1cncs1)C(c1cccc(Cl)c1)c1cccc(Cl)c1 [(S)-MK-26]
Data returned: 63.5 µM

Data request: Queued: NC(=O)C[S@@+]([O-])C(c1ccccc1)c1ccccc1 [(R)-Modafinil, reference compound]
Data returned: 127 µM

====

Test: Plasma and brain compound levels and pharmacokinetic parameters after i.p. administration
Assay type: in vivo, male Sprague–Dawley rats
Conditions: male, Sprague-Dawley, ip; plasma, rat, 10 mg/kg i.p.; read-out: Clast
MEASUREMENT LABEL: concentration at 10 h
Answer shape: numeric part, then the unit.

Data request: Reported concentration at 10 h for [O-][S@@+](Cc1cncs1)C(c1cccc(Cl)c1)c1cccc(Cl)c1 [(S)-MK-26] : what is it?
Data returned: 15.7 nM

====

Assay: Plasma and brain compound levels and pharmacokinetic parameters after i.p. administration
Format: in vivo, male Sprague–Dawley rats
Details: male, Sprague-Dawley, brain and plasma, ip; rat, 10 mg/kg i.p.; read-out: mean brain to plasma concentration ratio
MEASUREMENT LABEL: Kp

Data request: Reported Kp for [O-][S@@+](Cc1cncs1)C(c1cccc(Cl)c1)c1cccc(Cl)c1 [(S)-MK-26] : what is it?
Data returned: 1.12

====

Biological target: hSERT (Homo sapiens)
Sequence (P31645 whole entry): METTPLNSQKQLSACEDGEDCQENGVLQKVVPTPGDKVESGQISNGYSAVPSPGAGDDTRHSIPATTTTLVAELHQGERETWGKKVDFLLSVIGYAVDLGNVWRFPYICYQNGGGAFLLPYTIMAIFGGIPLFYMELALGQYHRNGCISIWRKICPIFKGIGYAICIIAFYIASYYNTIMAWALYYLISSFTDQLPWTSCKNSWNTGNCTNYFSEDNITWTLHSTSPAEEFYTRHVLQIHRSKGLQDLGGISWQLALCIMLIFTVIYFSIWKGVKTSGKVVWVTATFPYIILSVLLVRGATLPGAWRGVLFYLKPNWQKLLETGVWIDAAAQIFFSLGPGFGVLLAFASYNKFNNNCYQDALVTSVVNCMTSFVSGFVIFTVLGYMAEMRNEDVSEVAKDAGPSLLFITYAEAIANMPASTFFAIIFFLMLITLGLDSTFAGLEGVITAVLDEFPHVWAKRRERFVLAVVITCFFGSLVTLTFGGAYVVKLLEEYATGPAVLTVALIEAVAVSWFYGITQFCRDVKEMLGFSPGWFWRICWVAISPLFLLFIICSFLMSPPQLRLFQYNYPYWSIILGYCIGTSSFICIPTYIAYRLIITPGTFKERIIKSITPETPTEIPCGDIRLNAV
Test: Uptake inhibition assay in HEK293 cells expressing hSERT
pIC50: −log10 of the molar value.
Please provide measured pIC50 for the entries that follow.

Data request: Reported pIC50 for [O-][S@+](Cc1cncs1)C(c1cccc(Cl)c1)c1cccc(Cl)c1 [(R)-MK-26] : what is it?
Data returned: < 3.00

Data request: Queued: [O-][S@@+](Cc1cncs1)C(c1cccc(Cl)c1)c1cccc(Cl)c1 [(S)-MK-26]
Data returned: < 3.00

====

Target: hDAT (Homo sapiens)
Sequence (Q01959 whole entry): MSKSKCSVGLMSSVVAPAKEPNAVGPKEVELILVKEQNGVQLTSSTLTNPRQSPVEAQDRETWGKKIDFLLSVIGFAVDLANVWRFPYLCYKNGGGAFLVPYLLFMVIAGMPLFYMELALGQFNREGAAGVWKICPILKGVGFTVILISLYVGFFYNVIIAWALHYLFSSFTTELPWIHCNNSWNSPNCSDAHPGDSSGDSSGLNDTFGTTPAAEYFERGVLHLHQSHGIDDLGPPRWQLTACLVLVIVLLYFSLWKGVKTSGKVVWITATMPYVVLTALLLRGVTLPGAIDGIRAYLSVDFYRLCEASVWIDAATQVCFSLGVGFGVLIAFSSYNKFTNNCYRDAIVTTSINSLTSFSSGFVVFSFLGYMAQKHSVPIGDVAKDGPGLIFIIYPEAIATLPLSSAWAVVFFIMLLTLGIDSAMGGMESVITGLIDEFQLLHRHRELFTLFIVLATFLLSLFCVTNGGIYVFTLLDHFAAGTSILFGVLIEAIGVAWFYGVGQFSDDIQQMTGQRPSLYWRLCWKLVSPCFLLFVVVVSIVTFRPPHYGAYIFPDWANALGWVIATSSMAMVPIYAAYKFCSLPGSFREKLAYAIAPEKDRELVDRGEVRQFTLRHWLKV
Experiment: Uptake inhibition assay in HEK293 cells expressing hDAT
Please provide measured IC50 for the entries that follow.

Data request: Reported IC50 for [O-][S@+](Cc1cncs1)C(c1cccc(Cl)c1)c1cccc(Cl)c1 [(R)-MK-26] : what is it?
Data returned: 36.3 µM

Data request: Queued: [O-][S@@+](Cc1cncs1)C(c1cccc(Cl)c1)c1cccc(Cl)c1 [(S)-MK-26]
Data returned: 0.56 µM
